Values compiled from the supplement of paper PMC10126150.

Quick reference for switch fluorescence ratio among some sequences
Test system: ATP;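 further: ATP exposure 15 min at 22 °C before imaging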
Assay: switch fluorescence ratio, 500 uM ATP over buffer (Cy3 cluster intensity, sum of 5 cycles each) (fold (ratio)); higher = stronger signal-on switching upon ATP binding; sequences stand for … in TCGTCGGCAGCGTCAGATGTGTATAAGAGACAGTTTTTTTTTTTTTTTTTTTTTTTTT…TC
Conditions: aptamer strand: ATP DNA aptamer (quencher-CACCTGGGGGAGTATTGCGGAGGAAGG + anchor), 100 nM annealed; ATP concentration: 500 uM
Write the number on its own, no unit after it.

# annotated cases, reported switch fluorescence ratio shown
construct.sequence: AATCGGGCGC
value.measured: 1.01
//
construct.sequence: CAGAATTAA
value.measured: 1
//
construct.sequence: ACTGGGTTTC
value.measured: 0.99
//
construct.sequence: AGTATCTTCG
value.measured: 0.992
//
construct.sequence: GGATATGTGT
value.measured: 0.991

Request: # input sequence: AAGGTTACTC ; wanted: its switch fluorescence ratio
Result: 1.01

Request: Record: AGGAGGCGCG
Result: 1.05

Request: Then this sequence: GGGGGATCAG
Result: 0.992

Request: Another sequence: AGTGGAGCTG
Result: 1.02

Request: Now try GGGACAGCGT .
Result: 1.03

Request: Follow-up item: ATGGAGTGTG
Result: 0.989

====

Test system: ATP;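 further: ATP exposure 15 min at 22 °C before imaging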
Test: switch fluorescence ratio, 500 uM ATP over buffer (Cy3 cluster intensity, sum of 5 cycles each) (fold (ratio)); higher = stronger signal-on switching upon ATP binding; sequences stand for … in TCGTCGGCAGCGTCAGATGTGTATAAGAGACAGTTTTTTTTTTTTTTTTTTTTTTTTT…TC
Conditions: aptamer strand: ATP DNA aptamer (quencher-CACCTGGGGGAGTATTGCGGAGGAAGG + anchor), 100 nM annealed; ATP concentration: 500 uM
Reported switch fluorescence ratio values for a set of sequences
# answer = number (no unit)

construct.sequence: TGGGGGAATT
switch fluorescence ratio: 1
--
construct.sequence: TTGGGTGCAG
switch fluorescence ratio: 1.02
--
construct.sequence: TTTTTAGGCA
switch fluorescence ratio: 1
--
construct.sequence: GGTTTAAAAA
switch fluorescence ratio: 0.969
--
construct.sequence: GGTCCAGGTC
switch fluorescence ratio: 1.12

Request: What value of switch fluorescence ratio has been recorded for this entry: TTTGTTAAGT
Result: 1.01

Request: Note, next up: GGCGGACAGG
Result: 1.04

Request: What would you report for ATAGTGAGTA ?
Result: 0.996

Request: # repeat for ATAAGTTTGG
Result: 1.02

Request: Another sequence: GGGGATACGG
Result: 1.03

Request: Also need CTCGTTTAGA , thanks.
Result: 1.02

Request: Another sequence: AAGGGTGCGT
Result: 1.01

====

Test system: ATP;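 further: ATP exposure 15 min at 22 °C before imaging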
Assay: switch fluorescence ratio, 500 uM ATP over buffer (Cy3 cluster intensity, sum of 5 cycles each) (fold (ratio)); higher = stronger signal-on switching upon ATP binding; sequences stand for … in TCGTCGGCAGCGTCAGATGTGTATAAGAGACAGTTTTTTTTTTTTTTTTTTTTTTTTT…TC
Settings: aptamer strand: ATP DNA aptamer (quencher-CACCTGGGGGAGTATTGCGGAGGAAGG + anchor), 100 nM annealed; ATP concentration: 500 uM
readout: switch fluorescence ratio
Give the figure only, with no unit attached.

construct.sequence: GGGGTGCCGG
switch fluorescence ratio: 0.977

Request: Given CTTTTTAATG , state its recorded switch fluorescence ratio.
Result: 0.98

Request: Another sequence to look at: GAACGGTGTG
Result: 0.996

====

The following sequences are listed with their measured switch fluorescence ratio values.
System: ATP;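 further: ATP exposure 15 min at 22 °C before imaging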
Assay: switch fluorescence ratio, 500 uM ATP over buffer (Cy3 cluster intensity, sum of 5 cycles each) (fold (ratio)); higher = stronger signal-on switching upon ATP binding; sequences stand for … in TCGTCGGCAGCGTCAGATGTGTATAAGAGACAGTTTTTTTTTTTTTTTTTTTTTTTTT…TC
Settings: aptamer strand: ATP DNA aptamer (quencher-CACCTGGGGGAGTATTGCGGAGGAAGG + anchor), 100 nM annealed; ATP concentration: 500 uM
Answer with a number only.

Look over these answered cases.
construct.sequence: AGGGGGTTTG
assay.system: ATP;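 further: ATP exposure 15 min at 22 °C before imaging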
readout: switch fluorescence ratio
value.measured: 1.01
--
construct.sequence: AGAGAGTGAC
assay.system: ATP;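 further: ATP exposure 15 min at 22 °C before imaging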
readout: switch fluorescence ratio
value.measured: 0.981
--
construct.sequence: GATGCGTATG
assay.system: ATP;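 further: ATP exposure 15 min at 22 °C before imaging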
readout: switch fluorescence ratio
value.measured: 0.997
--
construct.sequence: GGTTTTTCGA
assay.system: ATP;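 further: ATP exposure 15 min at 22 °C before imaging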
readout: switch fluorescence ratio
value.measured: 0.983
--
construct.sequence: GGTTGAGTCG
assay.system: ATP;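 further: ATP exposure 15 min at 22 °C before imaging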
readout: switch fluorescence ratio
value.measured: 0.989
--
construct.sequence: GTTTTTTAAA
assay.system: ATP;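 further: ATP exposure 15 min at 22 °C before imaging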
readout: switch fluorescence ratio
value.measured: 0.987

Request: Suppose we examine the sequence TTGTTTGGAC ; what switch fluorescence ratio value has been reported?
Result: 1.03

Request: Moving on to the next sequence: CGGCGTACTG
Result: 1.03

Request: Try this sequence next: CAAGATCATT
Result: 1.01

Request: Then this sequence: CGGGCGCGGA
Result: 1.01

Request: Repeat with TTCATTTTGA
Result: 0.967

Request: Now consider ATACGGAGGC and answer again.
Result: 1.03

Request: Same question for GAGCTGCGGG please.
Result: 1

Request: Repeat with TGTTTTCAGT
Result: 0.975

Request: Same again, this time with GGTTGGGCGG
Result: 1.01

Request: Another sequence to check: ATAGCAGTTA
Result: 1.02

Request: Further, for CTGTGGGTTT ?
Result: 1.01

Request: Now consider TTGGTTAGGG and answer again.
Result: 0.986

Request: Repeat with GATAATGAAC
Result: 1.02

Request: Can you handle TTTGCTTTGT next?
Result: 1.01

====

Test system: ATP;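 further: ATP exposure 15 min at 22 °C before imaging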
Assay: switch fluorescence ratio, 500 uM ATP over buffer (Cy3 cluster intensity, sum of 5 cycles each) (fold (ratio)); higher = stronger signal-on switching upon ATP binding; sequences stand for … in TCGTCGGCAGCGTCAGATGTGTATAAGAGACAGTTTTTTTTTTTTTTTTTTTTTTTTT…TC
Details: aptamer strand: ATP DNA aptamer (quencher-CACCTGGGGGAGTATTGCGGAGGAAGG + anchor), 100 nM annealed; ATP concentration: 500 uM
readout: switch fluorescence ratio
Respond using a number only.

Here is how some sequences turned out for switch fluorescence ratio.
construct.sequence: TTGGGCTGGA
value.measured: 0.961

construct.sequence: TATCAGAAGC
value.measured: 1.01

construct.sequence: AGTTTGGTCA
value.measured: 0.98

Turning to the following sequence.
Request: Report switch fluorescence ratio for TTTCGGGGTT please.
Result: 1.04

====

System: ATP;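 further: ATP exposure 15 min at 22 °C before imaging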
Test: switch fluorescence ratio, 500 uM ATP over buffer (Cy3 cluster intensity, sum of 5 cycles each) (fold (ratio)); higher = stronger signal-on switching upon ATP binding; sequences stand for … in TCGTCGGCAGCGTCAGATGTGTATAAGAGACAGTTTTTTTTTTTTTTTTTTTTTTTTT…TC
Settings: aptamer strand: ATP DNA aptamer (quencher-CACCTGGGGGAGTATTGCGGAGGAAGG + anchor), 100 nM annealed; ATP concentration: 500 uM
Entries and their measured switch fluorescence ratio follow.
Respond using a number only.

construct.sequence: CTGTGTGCAC
assay.system: ATP;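 further: ATP exposure 15 min at 22 °C before imaging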
switch fluorescence ratio: 1
--
construct.sequence: AAGCGGCTCG
assay.system: ATP;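 further: ATP exposure 15 min at 22 °C before imaging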
switch fluorescence ratio: 0.996
--
construct.sequence: AAGGCCTATA
assay.system: ATP;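 further: ATP exposure 15 min at 22 °C before imaging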
switch fluorescence ratio: 0.998
--
construct.sequence: CGGCTTAAGG
assay.system: ATP;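 further: ATP exposure 15 min at 22 °C before imaging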
switch fluorescence ratio: 1.01
--
construct.sequence: ATTTTCGGGG
assay.system: ATP;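 further: ATP exposure 15 min at 22 °C before imaging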
switch fluorescence ratio: 1.01
--
construct.sequence: AATTTAGGTT
assay.system: ATP;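 further: ATP exposure 15 min at 22 °C before imaging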
switch fluorescence ratio: 0.993
--
construct.sequence: AGGGGGAATG
assay.system: ATP;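 further: ATP exposure 15 min at 22 °C before imaging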
switch fluorescence ratio: 1
--
construct.sequence: ATTCGGGCCA
assay.system: ATP;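 further: ATP exposure 15 min at 22 °C before imaging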
switch fluorescence ratio: 1.01

--- query ---
Request: Please tell me: switch fluorescence ratio of GGCCTAAATA , system ATP?;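 further: ATP exposure 15 min at 22 °C before imaging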
Result: 0.998

====

System: ATP;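 further: ATP exposure 15 min at 22 °C before imaging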
Test: switch fluorescence ratio, 500 uM ATP over buffer (Cy3 cluster intensity, sum of 5 cycles each) (fold (ratio)); higher = stronger signal-on switching upon ATP binding; sequences stand for … in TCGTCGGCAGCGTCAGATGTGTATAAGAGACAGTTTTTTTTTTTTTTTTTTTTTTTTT…TC
Settings: aptamer strand: ATP DNA aptamer (quencher-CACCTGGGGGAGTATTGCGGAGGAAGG + anchor), 100 nM annealed; ATP concentration: 500 uM
readout: switch fluorescence ratio
# output: bare number, no unit

construct.sequence: TTTCTTTGTT
value.measured: 1.04
--
construct.sequence: GGAGCAAGGG
value.measured: 3.37
--
construct.sequence: GACTGTCGG
value.measured: 1
--
construct.sequence: TGTAGGTAAA
value.measured: 0.997

Request: Which switch fluorescence ratio is reported for this sequence? TAGGTAGTCT
Result: 1.02

Request: Same question, AAGCGGGG this time
Result: 1.01

Request: Follow-up item: GGGGAATGGT
Result: 1.01

Request: Another sequence to check: ATAGGGGGTA
Result: 1

Request: Next: GCAAAATTTC
Result: 1.02

Request: Follow-up entry: CGGGTGTCAC
Result: 1.06

Request: Please give the result for AAGGTGTTGG too.
Result: 1.04

Request: // same read-out, input: TGCAGCTGTA
Result: 1.04
